# Tested on: c-Src;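 further: 11-residue human phosphosite peptides and single-mutation variants displayed on the E. coli surface, counted by deep sequencing, each peptide's frequency after selection divided by its frequency in the unselected input library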;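 further: frequency after pTyr selection over input frequency; kinase dosed for 20-30% of maximal phosphorylation in three min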
# Experiment: phosphorylation enrichment, bacterial display (enrichment ratio); higher = better substrate or ligand; peptides without Tyr show the background
Recorded measurements of phosphorylation enrichment, one per entry
Observed property: phosphorylation enrichment

1) VPFAQYLAMNK [HARS1_Y138_R137Q]: 0.44
2) FIRRDYEACKA [BBS4_Y48_K46R_YF]: 0.616
3) RHLLRYLSWTV [CLCNKB_Y93_S88R]: 0.516
4) QMQAAYQKVVA [HBD_Y131]: 0.293
5) YMLYQYLKQIE [RPAP3_Y569_D564Y]: 2.25
6) LHAAAYRNALA [UQCRC2_Y182]: 0.398
7) RGFRVYFTPDS [PTPRF_Y450_YF]: 0.714
8) NTQRPYYKGGG [TYROBP_Y111]: 0.432
9) QITQVCGFYDE [PPP2CA_Y127_Y127C]: 0.823
10) TENAGYYFQVS: 0.509
11) RPSELYYSKIG [SMG1_Y2253]: 5.63
12) RSPLRYTSILT [OR51B6_Y130]: 0.392
13) LVRAFYCERRR [CARD11_Y970]: 0.988
